# system name: human PD-L1 (cell surface) (human, UniProt Q9NZQ7)
# Sequence (Q9NZQ7 19-238): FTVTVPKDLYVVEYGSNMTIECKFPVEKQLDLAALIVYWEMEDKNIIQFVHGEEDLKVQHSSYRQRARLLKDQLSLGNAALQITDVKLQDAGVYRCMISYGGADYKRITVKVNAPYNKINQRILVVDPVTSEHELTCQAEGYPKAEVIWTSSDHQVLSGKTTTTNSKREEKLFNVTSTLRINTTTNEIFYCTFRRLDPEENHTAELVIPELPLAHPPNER
# measurement notes: FACS
readout name: pEC50
API: returns pEC50 as number; meaning -log10 of concentration in mol/L.

binder	pEC50
R2-1G10 (antibody, V domains shown) VH: QVQLVESGGGLVQPGGSLRLSCAASGIFFSDTHMGWYRQAPGKERELVAIITSGGSTDYVDSVKGRFTISRDNAKNTVYLQMNSLKFEDTAVYYCNARRTTIYWGQGTQVTVSS	9.20

# ---- query binder ----
Reported pEC50, binder R2-1A3 (antibody, V domains shown) VH: EVQLVESGGGLVQPGGSLRLSCVASGFDFSDTHMGWYRQAPGKQRELVALITSGAFTDYADSVKGRFTISRDNAKNTVYLQMNTLKFEDTAVYYCNARRTTIYWGQGTQVTVSS : ____
9.06
